Data provenance: paper PMC8271877

Test system: P. falciparum (K1 strain)
Assay: Drug sensitivity test (SYBR Green I), P. falciparum K1 strain
Format: cell-based, Plasmodium falciparum
Conditions: Plasmodium falciparum, K1, 48 h, PYR-resistant K1, 48 h, monotherapy; read-out: Absolute IC50 Value, P. falciparum (K1 Strain)
observed property: pIC50
Reminder that pIC50 means the negative base-10 logarithm of the concentration expressed in mol/L.

Record CCc1nc(N)nc(N)c1-c1ccc(Cl)cc1 [PYR, pyrimethamine] has P. falciparum (K1 strain) pIC50 equal to 3.98

* * *

Tested on: P. falciparum (K1 strain)
Experiment: Drug sensitivity test (SYBR Green I), P. falciparum K1 strain
Format: cell-based, Plasmodium falciparum
Settings: read-out: Absolute IC50 Value, P. falciparum (K1 Strain); PYR-resistant K1, 48 h, monotherapy
observed property: pIC50
Reminder that pIC50 means the negative base-10 logarithm of the concentration expressed in mol/L.

Memo: Cn1cc(O)c(=O)cc1C=Cc1cc(O)cc(O)c1 [DFP-RVT] , reported pIC50: 4.85
